target: human Nav1.7 (Homo sapiens (Human), UniProt Q15858); test: FLIPR or FLIPR TETRA sodium dye assay for sodium channel blocking activity; format: cell-based; details: recombinant HEK293 cells expressing human Nav1.7
Sequence (Q15858 other isoform, or with tags, fused parts or gaps): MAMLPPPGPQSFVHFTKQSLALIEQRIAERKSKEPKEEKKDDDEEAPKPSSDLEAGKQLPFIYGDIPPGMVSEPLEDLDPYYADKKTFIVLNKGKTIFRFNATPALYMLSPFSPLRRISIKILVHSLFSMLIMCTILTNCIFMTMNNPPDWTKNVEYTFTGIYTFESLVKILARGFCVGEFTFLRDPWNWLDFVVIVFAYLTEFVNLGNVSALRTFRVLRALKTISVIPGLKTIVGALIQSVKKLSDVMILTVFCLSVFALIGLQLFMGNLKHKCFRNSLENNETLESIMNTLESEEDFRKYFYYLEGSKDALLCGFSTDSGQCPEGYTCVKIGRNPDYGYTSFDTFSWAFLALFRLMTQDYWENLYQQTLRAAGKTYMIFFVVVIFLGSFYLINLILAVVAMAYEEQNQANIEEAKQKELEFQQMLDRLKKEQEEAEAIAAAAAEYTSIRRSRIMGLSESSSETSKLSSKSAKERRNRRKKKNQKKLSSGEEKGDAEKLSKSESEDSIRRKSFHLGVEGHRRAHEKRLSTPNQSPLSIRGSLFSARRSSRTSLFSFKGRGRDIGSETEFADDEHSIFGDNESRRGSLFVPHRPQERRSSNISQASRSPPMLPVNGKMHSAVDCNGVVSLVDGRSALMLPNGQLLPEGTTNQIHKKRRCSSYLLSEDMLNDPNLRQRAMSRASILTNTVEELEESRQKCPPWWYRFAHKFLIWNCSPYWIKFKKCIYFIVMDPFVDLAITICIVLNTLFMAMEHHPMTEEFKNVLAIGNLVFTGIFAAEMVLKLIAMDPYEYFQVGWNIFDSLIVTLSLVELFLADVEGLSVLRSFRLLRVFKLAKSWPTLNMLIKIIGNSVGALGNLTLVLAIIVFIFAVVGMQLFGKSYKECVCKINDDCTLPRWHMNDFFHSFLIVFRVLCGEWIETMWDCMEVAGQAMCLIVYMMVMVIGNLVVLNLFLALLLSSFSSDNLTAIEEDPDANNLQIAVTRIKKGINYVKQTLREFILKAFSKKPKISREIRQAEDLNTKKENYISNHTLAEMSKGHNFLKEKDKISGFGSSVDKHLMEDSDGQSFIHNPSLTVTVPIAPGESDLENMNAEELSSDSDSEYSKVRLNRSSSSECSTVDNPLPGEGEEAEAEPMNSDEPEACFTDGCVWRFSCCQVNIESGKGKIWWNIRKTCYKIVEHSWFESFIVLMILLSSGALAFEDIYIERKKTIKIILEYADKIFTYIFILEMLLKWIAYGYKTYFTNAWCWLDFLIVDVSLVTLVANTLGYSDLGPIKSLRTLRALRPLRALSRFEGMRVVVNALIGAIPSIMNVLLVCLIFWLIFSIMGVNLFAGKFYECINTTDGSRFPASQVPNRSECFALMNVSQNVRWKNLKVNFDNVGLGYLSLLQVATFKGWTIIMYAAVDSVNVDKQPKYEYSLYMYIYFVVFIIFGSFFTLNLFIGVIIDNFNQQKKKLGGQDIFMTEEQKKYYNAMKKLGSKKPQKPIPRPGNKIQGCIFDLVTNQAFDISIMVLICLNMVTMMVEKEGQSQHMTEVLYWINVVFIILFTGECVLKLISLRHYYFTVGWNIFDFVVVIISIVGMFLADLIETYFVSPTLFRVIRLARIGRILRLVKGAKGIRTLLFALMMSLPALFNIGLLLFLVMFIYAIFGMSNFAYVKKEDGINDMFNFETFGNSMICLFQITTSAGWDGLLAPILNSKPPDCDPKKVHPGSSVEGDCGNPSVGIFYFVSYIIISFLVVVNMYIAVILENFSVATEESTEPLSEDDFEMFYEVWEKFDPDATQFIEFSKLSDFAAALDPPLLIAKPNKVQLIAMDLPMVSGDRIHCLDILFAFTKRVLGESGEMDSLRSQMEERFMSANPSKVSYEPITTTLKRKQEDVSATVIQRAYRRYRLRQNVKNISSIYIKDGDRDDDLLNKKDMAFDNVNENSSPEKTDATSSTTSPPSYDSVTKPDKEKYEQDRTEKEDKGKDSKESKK
Parameter IC50: see the listing below.

NC(=O)c1c[nH]c2ccc(-c3cccc(C(=O)Nc4ccc(C(F)(F)F)cc4)n3)cc12
> 20 µM
OC[C@@H](O)c1ccnc(-c2ccc3ncn(-c4ccc(C(F)(F)F)cc4)c3c2)n1
3.51 µM
CC(C)Cn1ccc2cc(-c3cccc([C@H](O)[C@@H](O)C(N)=O)n3)ccc21 [Compound 153]
2.62 µM
NC(=O)c1cc(-c2ccc3c(ccn3Cc3ccc(C(F)(F)F)cc3)c2)cc([C@@H](O)CO)n1
1.74 µM
O=C(NC1CCCC1)c1cccc(-c2ccc3[nH]ccc3c2)n1
1.21 µM
N#Cc1cc([C@@H](O)CO)cc(-c2ccc3c(ccn3Cc3ccc(C(F)(F)F)cc3)c2)n1
5.09 µM

Query :: Query (compound): `NC(=O)CC[C@H](NC(=O)c1c[nH]c2ccc(-c3cccc(C(=O)Nc4ccc(C(F)(F)F)cc4)n3)cc12)C(N)=O` ; field requested: IC50
Result :: > 20 µM

Query :: Query (compound): `NC(=O)c1cc(N[C@H]2CCNC2=O)nc(-c2ccc3[nH]ccc3c2)n1` ; field requested: IC50
Result :: > 20 µM
